target: CDK9/Cyclin T1 complex (Homo sapiens); assay: CDK9 kinase inhibition assay (Caliper/LabChip EZ Reader); format: biochemical; conditions: CDK9/Cyclin T1 8 nM, ATP 2 mM, 15 min at 27° C.
measured.attribute: IC50

Use these answered entries as a reference point.
* CS(=O)(=O)c1ccc2c(-c3nc(NC4CCCNC4)ncc3C(F)(F)F)c[nH]c2c1 (centres unmarked) [Compound 199] | 0.2 to 5 µM
* Cc1c(-c2ccc3c(-c4nc(NC5CCCNC5)ncc4C(F)(F)F)c[nH]c3c2)cnn1C (centres unmarked) [Compound 227] | 0.2 to 5 µM
* CCP(=O)(CC)c1ccc2c(-c3nc(NC4CCCNC4)ncc3C(F)(F)F)c[nH]c2c1 (centres unmarked) [Compound 379] | ≥ 5 µM
* CC1(C)CNC[C@@H](Nc2ncc(C(F)(F)F)c(-c3c[nH]c4ccccc34)n2)C1 [Compound 243] | 0.2 to 5 µM
* FC(F)(F)c1cnc(NC2CCCNC2)nc1-c1c[nH]c2cc(-c3cnccn3)ccc12 (centres unmarked) [Compound 328] | 0.2 to 5 µM

Lookup result for CN1CCC[C@H](Nc2ncc(C(F)(F)F)c(-c3c[nH]c4cc(S(C)(=O)=O)ccc34)n2)C1 [Compound 364] ; measured IC50: ≥ 5 µM

The compound FC(F)(F)c1cnc(N[C@H]2CCCNC2)nc1-c1c[nH]c2cc(-c3ccncc3)ccc12 [Compound 224] showed IC50 equal to 0.2 to 5 µM

Lab note: measured IC50 of COCn1cc(-c2nc(NC3CCCNC3)ncc2C(F)(F)F)c2cccc(C#N)c21 (centres unmarked) [Compound 295] was ≥ 5 µM

# IC50 (compound: Ic1cnc(NC2CCCNC2)nc1-c1c[nH]c2ccccc12 (centres unmarked) [Compound 147] ) is 0.2 to 5 µM

Field IC50 (entry Cc1nn(C)cc1-c1ccc2c(-c3nc(N[C@H]4CCCNC4)ncc3C(F)(F)F)c[nH]c2c1 [Compound 226] ) reads 0.2 to 5 µM

====

Measured IC50 accompanies every entry in the list below.
molecular target: CDK12 (aa686-1082)/Cyclin K complex (Homo sapiens, UniProt Q9NYV4); construct: CDK12 (aa686-1082)/Cyclin K complex; assay: CDK12 kinase inhibition assay (Caliper/LabChip EZ Reader); conditions: CDK12 (aa686-1082)/Cyclin K 50 nM, ATP 2 mM, 3 hr at 27° C.
Sequence (Q9NYV4 686-1082): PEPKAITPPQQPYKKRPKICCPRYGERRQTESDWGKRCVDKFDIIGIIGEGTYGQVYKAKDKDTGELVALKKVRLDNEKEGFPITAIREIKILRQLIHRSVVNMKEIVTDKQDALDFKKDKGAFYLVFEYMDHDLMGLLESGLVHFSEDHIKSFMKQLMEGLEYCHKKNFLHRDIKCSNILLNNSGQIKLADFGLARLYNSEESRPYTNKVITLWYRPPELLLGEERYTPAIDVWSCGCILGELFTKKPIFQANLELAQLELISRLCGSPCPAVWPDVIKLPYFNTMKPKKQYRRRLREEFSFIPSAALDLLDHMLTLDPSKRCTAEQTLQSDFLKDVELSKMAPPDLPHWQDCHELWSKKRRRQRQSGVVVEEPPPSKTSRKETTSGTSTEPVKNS
Sequence (O75909 whole entry partner, the tested form may be a part): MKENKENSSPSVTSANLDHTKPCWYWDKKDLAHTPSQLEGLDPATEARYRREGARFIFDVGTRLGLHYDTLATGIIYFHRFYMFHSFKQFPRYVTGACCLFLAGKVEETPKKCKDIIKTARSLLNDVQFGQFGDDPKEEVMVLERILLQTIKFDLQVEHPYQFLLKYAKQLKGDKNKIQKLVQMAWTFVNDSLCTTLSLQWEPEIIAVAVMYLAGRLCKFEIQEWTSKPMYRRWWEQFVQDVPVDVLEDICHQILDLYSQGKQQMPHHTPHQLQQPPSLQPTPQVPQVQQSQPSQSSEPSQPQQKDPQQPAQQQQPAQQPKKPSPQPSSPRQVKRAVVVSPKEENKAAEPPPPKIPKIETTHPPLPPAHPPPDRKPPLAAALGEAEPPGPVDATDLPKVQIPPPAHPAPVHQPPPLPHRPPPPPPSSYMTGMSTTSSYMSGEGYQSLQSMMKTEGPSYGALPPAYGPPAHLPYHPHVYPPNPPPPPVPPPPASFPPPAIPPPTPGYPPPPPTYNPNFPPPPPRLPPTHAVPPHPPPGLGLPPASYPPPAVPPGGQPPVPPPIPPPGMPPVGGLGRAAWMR

What the record says about CCN1CCCC(Nc2ncc(C(F)(F)F)c(-c3c[nH]c4cc(C#N)ccc34)n2)C1 (stereo not drawn) : IC50 is 0.2 to 5 µM

IC50 reading for NC(=O)c1cccc(-c2ccc3c(-c4nc(NC5CCCNC5)ncc4C(F)(F)F)c[nH]c3c2)c1 (stereo not drawn) : 0.2 to 5 µM

Just so you know, measured IC50 for N#Cc1cc(-c2ccc3c(-c4nc(NC5CCCNC5)ncc4C(F)(F)F)c[nH]c3c2)c[nH]1 (stereo not drawn) came out at 0.2 to 5 µM

IC50 reported for this molecule CC1(Nc2ncc(Cl)c(-c3c[nH]c4ccccc34)n2)CCCNC1 (stereo not drawn) : ≥ 5 µM

Consider CC(=O)c1cnc(NC2CCCNC2)nc1-c1c[nH]c2ccccc12 (stereo not drawn) . Its measured IC50 is 0.2 to 5 µM

Query CCc1cnc(NC2CCCNC2)nc1-c1c[nH]c2c(S(=O)(=O)C(C)C)cccc12 (stereo not drawn) yields IC50 of ≥ 5 µM

====

Items are presented alongside their recorded IC50.
target: CDK7/Cyclin H/MAT1 complex (Homo sapiens, UniProt P50613); experiment: CDK7 kinase inhibition assay (Caliper/LabChip EZ Reader); conditions: CDK7/Cyclin H/MAT1 6 nM, ATP 2 mM, 35 min at 27° C.
Sequence (P50613 whole entry): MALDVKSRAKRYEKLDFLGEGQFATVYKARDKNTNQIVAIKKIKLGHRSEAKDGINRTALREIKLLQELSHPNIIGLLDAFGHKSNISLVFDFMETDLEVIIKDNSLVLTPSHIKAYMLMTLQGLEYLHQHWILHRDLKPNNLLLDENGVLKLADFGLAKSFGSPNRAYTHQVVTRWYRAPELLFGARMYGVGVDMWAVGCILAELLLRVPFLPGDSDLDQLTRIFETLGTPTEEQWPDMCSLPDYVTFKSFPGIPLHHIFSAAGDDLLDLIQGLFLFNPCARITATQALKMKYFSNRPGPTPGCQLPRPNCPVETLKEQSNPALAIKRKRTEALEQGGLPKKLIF
Sequence (P51946 whole entry partner): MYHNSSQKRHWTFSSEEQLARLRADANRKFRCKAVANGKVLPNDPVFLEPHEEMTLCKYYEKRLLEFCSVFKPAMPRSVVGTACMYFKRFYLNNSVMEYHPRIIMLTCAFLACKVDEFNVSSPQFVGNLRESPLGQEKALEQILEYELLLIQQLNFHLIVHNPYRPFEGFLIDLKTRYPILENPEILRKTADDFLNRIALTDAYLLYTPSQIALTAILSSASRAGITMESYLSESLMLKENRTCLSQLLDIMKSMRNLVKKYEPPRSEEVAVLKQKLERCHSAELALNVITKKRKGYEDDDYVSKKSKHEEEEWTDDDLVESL
Sequence (P51948 whole entry partner): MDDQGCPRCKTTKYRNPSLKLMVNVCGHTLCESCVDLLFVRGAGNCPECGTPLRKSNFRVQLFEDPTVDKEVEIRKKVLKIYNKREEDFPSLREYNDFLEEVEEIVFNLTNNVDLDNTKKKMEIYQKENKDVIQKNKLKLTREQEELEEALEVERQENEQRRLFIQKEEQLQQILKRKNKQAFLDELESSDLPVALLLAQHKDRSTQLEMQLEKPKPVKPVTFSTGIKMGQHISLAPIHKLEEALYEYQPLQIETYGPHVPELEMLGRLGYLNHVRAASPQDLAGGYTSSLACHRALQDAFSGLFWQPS

Below, each entry is followed by its recorded IC50 result.
- Fc1cccc2c(-c3nc(N[C@H]4CCCNC4)ncc3C(F)(F)F)n[nH]c12: < 20 nM
- CC(C)(O)CCc1cccc2c(-c3nc(NC4CCCNC4)ncc3C(F)(F)F)c[nH]c12 (centres unmarked): < 20 nM
- O=C(c1ccc2c(-c3nc(NC4CCCNC4)ncc3C(F)(F)F)c[nH]c2c1)N1CC(O)C(F)(F)C1 (centres unmarked) [Compound 308]: < 20 nM
- N#CC1CCN(C(=O)c2ccc3c(-c4nc(NC5CCCNC5)ncc4C(F)(F)F)c[nH]c3c2)C1 (centres unmarked) [Compound 293]: < 20 nM
- CCS(=O)(=O)c1ccc2c(-c3nc(NC4CCCNC4)ncc3C(F)(F)F)c[nH]c2c1 (centres unmarked): < 20 nM
- CC(C)C1CCC(Nc2ncc(C(F)(F)F)c(-c3c[nH]c4ccccc34)n2)CN1 (centres unmarked): 200 to 5000 nM

# molecule Cc1nn(C)cc1-c1cccc2c(-c3nc(NC4CCCNC4)ncc3C(F)(F)F)c[nH]c12 (centres unmarked) ; its IC50 = < 20 nM

GET /value?item= FC(F)(F)c1cnc(NC2CCC3(CC3)NC2)nc1-c1c[nH]c2ccccc12 (centres unmarked) &field=IC50 returns < 20 nM

====

target: CDK9/Cyclin T1 complex (Homo sapiens, UniProt P50750); experiment: CDK9 kinase inhibition assay (Caliper/LabChip EZ Reader); conditions: CDK9/Cyclin T1 8 nM, ATP 2 mM, 15 min at 27° C.
Sequence (P50750 whole entry): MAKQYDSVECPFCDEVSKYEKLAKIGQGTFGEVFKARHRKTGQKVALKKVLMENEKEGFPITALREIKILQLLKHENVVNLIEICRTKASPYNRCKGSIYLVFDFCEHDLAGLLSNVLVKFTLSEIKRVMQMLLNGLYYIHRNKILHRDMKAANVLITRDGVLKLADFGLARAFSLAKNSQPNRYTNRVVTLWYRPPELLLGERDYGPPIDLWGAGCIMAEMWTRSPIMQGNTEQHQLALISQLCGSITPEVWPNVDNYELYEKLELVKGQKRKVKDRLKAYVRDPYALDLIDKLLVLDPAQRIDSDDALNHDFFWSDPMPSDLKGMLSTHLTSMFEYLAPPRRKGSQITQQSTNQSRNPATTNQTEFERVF
Sequence (O60563 whole entry partner): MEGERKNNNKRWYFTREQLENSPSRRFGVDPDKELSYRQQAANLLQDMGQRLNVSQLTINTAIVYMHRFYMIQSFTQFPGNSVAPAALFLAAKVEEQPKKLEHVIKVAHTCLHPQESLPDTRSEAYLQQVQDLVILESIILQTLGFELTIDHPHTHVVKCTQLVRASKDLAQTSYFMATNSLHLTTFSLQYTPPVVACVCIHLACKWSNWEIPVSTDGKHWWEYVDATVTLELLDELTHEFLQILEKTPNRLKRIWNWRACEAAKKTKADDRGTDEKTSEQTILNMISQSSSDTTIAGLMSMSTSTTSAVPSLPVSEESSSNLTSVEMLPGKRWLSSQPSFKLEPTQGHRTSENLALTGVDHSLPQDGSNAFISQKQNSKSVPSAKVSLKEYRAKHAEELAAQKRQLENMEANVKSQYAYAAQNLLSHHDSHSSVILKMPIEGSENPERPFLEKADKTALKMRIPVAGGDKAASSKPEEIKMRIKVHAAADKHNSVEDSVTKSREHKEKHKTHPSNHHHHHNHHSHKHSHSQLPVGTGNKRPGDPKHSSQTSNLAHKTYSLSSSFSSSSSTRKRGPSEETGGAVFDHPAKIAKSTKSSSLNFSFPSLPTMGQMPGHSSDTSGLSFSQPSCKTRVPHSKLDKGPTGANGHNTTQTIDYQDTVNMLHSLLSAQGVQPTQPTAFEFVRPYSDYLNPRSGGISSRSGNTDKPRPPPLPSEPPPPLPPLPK
measured.attribute: IC50

Answered cases to consult:
- CC1(C)CCNC[C@@H]1Nc1ncc(C(F)(F)F)c(-c2c[nH]c3ccccc23)n1 [Compound 209]: ≥ 5 µM
- O=S1(=O)CCn2cc(-c3nc(N[C@H]4CCCNC4)ncc3C(F)(F)F)c3cccc1c32 [Compound 348]: ≥ 5 µM
- N#Cc1ccc2c(-c3nc(N[C@@H]4CCCNC4)ncc3C(F)(F)F)c[nH]c2c1-c1ccnnc1 [Compound 261]: 0.2 to 5 µM
- CCOP(=O)(OCC)c1ccc2c(-c3nc(NC4CCCNC4)ncc3C(F)(F)F)c[nH]c2c1 (stereo not shown) [Compound 187]: ≥ 5 µM
- CC1(C)CCNC[C@H]1Nc1ncc(C(F)(F)F)c(-c2c[nH]c3ccccc23)n1 [Compound 210]: ≥ 5 µM

GET /value?item= N#CC1CCN(C(=O)c2ccc3c(-c4nc(NC5CCCNC5)ncc4C(F)(F)F)c[nH]c3c2)C1 (stereo not shown) [Compound 293] &field=IC50 returns 0.2 to 5 µM

Sample Clc1cnc(NC2CCCNC2)nc1-c1cn(-c2ccccc2)c2ccccc12 (stereo not shown) [Compound 132] ; IC50 observed: 0.2 to 5 µM

IC50 for OC1CCNCC1Nc1ncc(Cl)c(-c2c[nH]c3ccccc23)n1 (stereo not shown) [Compound 113] is ≥ 5 µM

Documented IC50 of Cc1cccc2c(-c3nc(NC4CCCNC4)ncc3CC(C)C)c[nH]c12 (stereo not shown) [Compound 140] : ≥ 5 µM

The recorded IC50 for Cn1cc(-c2nc(NC3CCCNC3)ncc2C(F)(F)F)c2cccc(C#N)c21 (stereo not shown) [Compound 279] is ≥ 5 µM

# molecule CC1CCNCC1Nc1ncc(C(F)(F)F)c(-c2c[nH]c3ccccc23)n1 (stereo not shown) [Compound 372] ; its IC50 = 0.2 to 5 µM

response.value for O=C(c1ccc2c(-c3nc(NC4CCCNC4)ncc3C(F)(F)F)c[nH]c2c1)N1CCC(O)(C(F)(F)F)C1 (stereo not shown) [Compound 299] (field: IC50) = 0.2 to 5 µM

Entry N#Cc1cn(-c2ccc3c(-c4nc(NC5CCCNC5)ncc4C(F)(F)F)c[nH]c3c2)cn1 (stereo not shown) [Compound 249] — recorded IC50 = ≥ 5 µM

Item: Cc1[nH]ncc1-c1cccc2c(-c3nc(N[C@@H]4CCCNC4)ncc3C(F)(F)F)c[nH]c12 [Compound 175] | IC50: 0.02 to 0.2 µM

The reported IC50 of the molecule CC(C)(C)OC(=O)N1CCC[C@H](Nc2ncc(C(F)(F)F)c(-c3c[nH]c4cc(P(C)(C)=O)ccc34)n2)C1 [Compound 352] was ≥ 5 µM

The molecule listed as O=C(C1CCC(Nc2ncc(C(F)(F)F)c(-c3c[nH]c4ccccc34)n2)CN1)N1CCCC1 (stereo not shown) [Compound 228] shows IC50 equal to 0.2 to 5 µM

====

biological target: CDK2/Cyclin E1 complex (Homo sapiens); assay: CDK2 kinase inhibition assay (Caliper/LabChip EZ Reader); conditions: CDK2/Cyclin E1 0.5 nM, ATP 2 mM, 35 min at 27° C.
pIC50: −log10 of the molar value.
measured.attribute: pIC50

Observe how each entry below is paired with its result.
* N#Cc1ccc2c(-c3nc(NC4CNCCC4O)ncc3C(F)(F)F)c[nH]c2c1 (stereo not shown) | ≤ 5.30
* FC(F)(F)c1cnc(NC2CCCNC2)nc1-c1c[nH]c2c(Cl)cccc12 (stereo not shown) | 5.30 to 6.70
* CS(=O)(=O)c1ccc2c(-c3nc(NC4CCCNC4)ncc3C(F)(F)F)c[nH]c2c1 (stereo not shown) | 5.30 to 6.70

For the next question, use this compound.
So, FC(F)(F)c1cnc(NC2CNCC(c3nnc4ccccn34)C2)nc1-c1c[nH]c2ccccc12 (stereo not shown) [Compound 267] ? Its pIC50 was 5.30 to 6.70
